Assay: Kinetic solubility of the compound in pION buffer at pH 7.4 measured after 18 hrs
Type: physicochemical
Settings: read-out: Kinetic_solubility
READOUT_KIND: solubility kinetic at 18 h (µg/mL)

Known results for compounds:
CCC1(CC(=O)O)CCc2cc(-c3ccc(NC(=O)Nc4ccc(C)cc4)cc3)ccc2C1=O (configuration not stated); 36
Cc1cccc(NC(=O)Nc2ccc(-c3ccc4c(c3)CCC(C)(CC(=O)O)C4=O)cc2)c1 (configuration not stated); 103
CC[C@@]1(CC(=O)O)CCc2cc(-c3ccc(NC(=O)Nc4cccc(C(F)(F)F)c4)cc3Cl)ccc2C1=O; 151

(I) CCC1(CC(=O)O)CCc2cc(-c3ccc(NC(=O)Nc4cccc(C(F)(F)F)c4)cc3)ccc2C1=O (racemic)
(II) CC[C@@]1(CC(=O)O)CCc2cc(-c3ccc(NC(=O)Nc4ccc(F)c(F)c4)cc3Cl)ccc2C1=O
(III) O=C(O)C[C@]1(CC(F)(F)F)CCc2cc(-c3cnc(NC(=O)Nc4cccc(C(F)(F)F)c4)cn3)ccc2C1=O
(IV) CC[C@@]1(CC(=O)O)CCc2cc(-c3ccc(NC(=O)Nc4ccc(Cl)cc4)cc3)ccc2C1=O
// query Please order the records by their reported solubility kinetic at 18 h, lowest number first. # format: label list in the order the request specifies
// result IV, I, III, II
(IV: 5 µg/mL, I: 39 µg/mL, III: 56 µg/mL, II: 125 µg/mL)
